Where these numbers come from: patent US8344010B2

Listed here are molecules together with their documented IC50.
# ASSAYED_SYSTEM: Human TRPV3 (Homo sapiens, UniProt Q8NET8)
# Construct: expressed in transfected cells; host or cells: CHO cells (selected with G-418)
# Sequence (Q8NET8 whole entry): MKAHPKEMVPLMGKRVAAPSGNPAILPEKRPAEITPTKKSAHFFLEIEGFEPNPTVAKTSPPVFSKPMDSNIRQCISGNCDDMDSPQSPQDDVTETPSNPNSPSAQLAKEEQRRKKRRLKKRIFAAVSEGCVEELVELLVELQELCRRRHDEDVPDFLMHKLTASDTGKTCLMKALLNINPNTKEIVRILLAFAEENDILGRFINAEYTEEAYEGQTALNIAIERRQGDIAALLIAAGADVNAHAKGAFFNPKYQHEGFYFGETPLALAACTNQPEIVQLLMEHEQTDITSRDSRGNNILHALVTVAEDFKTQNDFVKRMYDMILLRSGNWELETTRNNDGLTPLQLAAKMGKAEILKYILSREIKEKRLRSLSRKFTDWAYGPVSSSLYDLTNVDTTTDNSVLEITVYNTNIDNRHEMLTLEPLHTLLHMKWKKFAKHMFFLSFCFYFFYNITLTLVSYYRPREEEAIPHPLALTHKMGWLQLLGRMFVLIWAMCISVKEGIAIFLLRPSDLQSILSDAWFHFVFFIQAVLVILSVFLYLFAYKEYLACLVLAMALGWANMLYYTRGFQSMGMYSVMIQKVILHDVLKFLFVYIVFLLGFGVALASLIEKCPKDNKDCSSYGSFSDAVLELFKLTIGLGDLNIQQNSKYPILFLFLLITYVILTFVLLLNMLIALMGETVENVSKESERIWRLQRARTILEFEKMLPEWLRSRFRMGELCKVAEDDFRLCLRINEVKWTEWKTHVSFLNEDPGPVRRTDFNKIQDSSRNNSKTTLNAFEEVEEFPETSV
# TEST_DESCRIPTION: 45Calcium uptake assay: inhibition of 2-APB induced cellular uptake of radioactive calcium
# Assay type: cell-based
# CONDITION: class symbol; human TRPV3 expressing CHO cells; 2-APB 500 μM
# From the text: The illustrative examples of the present invention are screened for TRPV3 activity according to a modified procedure described in Tóth, A., Kedei, N., Wang, Y. and Blumberg, P. M. Life Sciences (2003), 73, 487-498. The screening of the compounds can be carried out by other methods and procedures known to a person skilled in the art. […]

Solved cases (2 shown):
COc1cccc(/C=C/c2nc3ccc(F)cc3n2-c2ccc(C#N)cn2)c1OC1CCCC1	100 to 500 nM
CCC(CC)Oc1c(/C=C/c2nc3ccccc3n2-c2ccc(C#N)cn2)cccc1OC	100 to 500 nM

Sure, the documented IC50 for COc1cccc(/C=C/c2nc3cc(Cl)cnc3n2-c2ccc(C#N)cn2)c1OCC1CCC1 is 50 to 100 nM

Sure, the documented IC50 for COc1cccc(/C=C/c2nc3cc(F)c(Cl)cc3n2-c2ccc(C#N)cn2)c1OC1CCCC1 is 50 to 100 nM

Sure, the documented IC50 for COc1cccc(/C=C/c2nc3ccccc3n2-c2ncc(Cl)cc2Cl)c1OCc1ccccc1F is > 500 nM

====

# ASSAYED_SYSTEM: Human TRPV3 (Homo sapiens)
# Construct: expressed in transfected cells; host or cells: CHO cells (selected with G-418)
# TEST_DESCRIPTION: 45Calcium uptake assay: inhibition of 2-APB induced cellular uptake of radioactive calcium
# Format: cell-based
# CONDITION: 10 μM test compound; human TRPV3 expressing CHO cells; 2-APB 500 μM; read-out: Percentage Inhibition (10 μM)
MEASURED_METRIC: inhibition at 10 µM (%)

CCC(CC)Oc1c(/C=C/c2nc3cc(F)c(F)cc3n2-c2ccc(C#N)cn2)cccc1OC	98.7

(P) COc1cccc(/C=C/c2nc3ccccc3n2-c2ccc(C(F)(F)F)cc2)c1OCC1CC1
(Q) COc1cccc(/C=C/c2nc3ccccc3n2Cc2ccc(C(C)(C)C)cc2)c1OC1CCCC1
(R) COc1cccc(/C=C/c2nc3ccc[n+]([O-])c3n2-c2ccc(C#N)cn2)c1OC1CCCC1
(S) COc1ccccc1-n1c(/C=C/c2cccc(OC)c2OC2CCCC2)nc2ccccc21
Qu. Order the items by recorded inhibition at 10 µM; the first position goes to the largest value. Respond with the label ranking, as requested.
Ans. P, R, Q, S

====

# ASSAYED_SYSTEM: Human TRPV3 (Homo sapiens, UniProt Q8NET8)
# Construct: expressed in transfected cells; host or cells: CHO cells (selected with G-418)
# TEST_DESCRIPTION: 45Calcium uptake assay: inhibition of 2-APB induced cellular uptake of radioactive calcium
# Format: cell-based
# CONDITION: 10 μM test compound; human TRPV3 expressing CHO cells; 2-APB 500 μM; read-out: Percentage Inhibition (10 μM)
# Excerpt: The illustrative examples of the present invention are screened for TRPV3 activity according to a modified procedure described in Tóth, A., Kedei, N., Wang, Y. and Blumberg, P. M. Life Sciences (2003), 73, 487-498. The screening of the compounds can be carried out by other methods and procedures known to a person skilled in the art. […]
MEASURED_METRIC: inhibition at 10 µM (%)

COc1ccc2nc(/C=C/c3cccc(OC)c3OC3CCCC3)n(-c3ccc(C#N)cn3)c2c1	97.8
COc1cccc(/C=C/c2nc3ccccc3n2-c2ccc(C#N)cn2)c1OCc1ccccc1F	97.7
N#Cc1ccc(-n2c(/C=C/c3cccc(OC(F)F)c3OC3CCCC3)nc3cc(Cl)cnc32)nc1	97.8
COc1ccc2c(c1)nc(/C=C/c1cccc(OC)c1OC1CCCC1)n2-c1ccc(C#N)cn1	98.9
CCCCCOc1c(/C=C/c2nc3cc(F)c(F)cc3n2-c2ccc(C#N)cn2)cccc1OC	97.4
COc1cccc(/C=C/c2nc3cc(F)c(F)cc3n2-c2ccc(C#N)cn2)c1O	95.5
